Tested on: rabbit aortic smooth muscle cells
Assay: aortic explant assay of smooth muscle cell migration induced by platelet-derived growth factor
Type: cell-based
Conditions: Oryctolagus cuniculus; 1 nM test compound; rabbit aortic explants, PDGF-induced migration; read-out: % inhibition of SMC migration from explants
assay-readout: inhibition at 0.001 µM (%)
Give bare numbers, in %.

• CCOC(=O)C1=C(COCCN)NC(C)=C(C(=O)OC)C1c1ccccc1Cl (racemic) [Amlodipine (racemate)] = 33
• CCOC(=O)C1=C(COCCN)NC(C)=C(C(=O)OC)[C@@H]1c1ccccc1Cl [Amlodipine S (-)] = 30
• CCOC(=O)C1=C(C)NC(C)=C(C(=O)OC)C1c1cccc([N+](=O)[O-])c1 (stereo not shown) = 28

Attention now shifts to the item below.
**Query** Please report inhibition at 0.001 µM for the following compound: CCOC(=O)C1=C(COCCN)NC(C)=C(C(=O)OC)[C@H]1c1ccccc1Cl [Amlodipine R (+)]
**Result** 39
